target: Human MMP9 (human, UniProt P14780 20-707, limits assumed); test: celTRF and Octet QK cross-reactivity
Sequence (P14780 20-707 limits assumed): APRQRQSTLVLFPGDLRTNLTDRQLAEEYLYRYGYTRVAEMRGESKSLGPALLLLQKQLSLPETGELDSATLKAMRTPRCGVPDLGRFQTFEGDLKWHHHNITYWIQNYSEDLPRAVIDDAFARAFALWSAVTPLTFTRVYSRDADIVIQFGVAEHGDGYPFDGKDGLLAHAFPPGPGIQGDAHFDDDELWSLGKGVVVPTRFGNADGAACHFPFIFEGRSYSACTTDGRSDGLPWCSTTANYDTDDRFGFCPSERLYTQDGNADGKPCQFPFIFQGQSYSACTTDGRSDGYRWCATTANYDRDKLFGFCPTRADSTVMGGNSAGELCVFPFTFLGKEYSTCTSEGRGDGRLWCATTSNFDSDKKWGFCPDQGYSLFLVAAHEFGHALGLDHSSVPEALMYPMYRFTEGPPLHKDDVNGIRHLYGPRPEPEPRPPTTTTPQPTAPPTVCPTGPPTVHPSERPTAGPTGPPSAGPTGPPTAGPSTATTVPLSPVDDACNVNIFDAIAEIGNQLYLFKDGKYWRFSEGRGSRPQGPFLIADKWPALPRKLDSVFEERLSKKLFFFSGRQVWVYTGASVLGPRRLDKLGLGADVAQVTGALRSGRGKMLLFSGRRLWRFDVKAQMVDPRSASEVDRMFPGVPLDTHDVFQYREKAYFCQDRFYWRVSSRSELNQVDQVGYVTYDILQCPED
Experimental readout: binding result

Provide binding result value for the following binder: 5F10.1H6 (antibody, V domains shown, Murine monoclonal antibody from a hybridoma) VH: EVKLEESGGGLVQPGGSMKLSCAASGFTFSDAWMDWVRQSPEKGLEWVAEIRHKANDHAIFYDESVKGRFTISRDDSKSIVYLQMNSLRPEDTGIYYCTSPFAYWGQGTLVTVSA VL: DIVMTQSQRFMSVTVGDRVSITCKASQSVGTTIVWYQQKPGQSPKLLIYSASTRYTGVPDRFTGGGSGTDFILTINNVQSEDLADYFCQQYSSYPFTFGSGTKLEIKR
no binding

Fill in binding result for record 12F4.1H7 (antibody, IgG2, V domains shown, also called Murine 12F4.1H7) VH: EVKLEESGGGLVQPGGSMKLSCTASGFTFSDAWMDWVRQSPEKGLEWVAEIRHKANDHAIFYDESVKGRFTISRDDSKNIVYLQMNSLRPEDTGIYYCTSPFAYWGQGTLVTVSA VL: DIVMTQSQKFMSVTVGDRVSITCKASQSVGTTIVWYQQKPGQSPKLLIYSASNRHTGVPDRFTGSGSGTDFILTINNVQSEDLADYFCQQYTSYPFTFGSGTKLEIKR
no binding
